Data origin, for the record: ChEMBL document CHEMBL4130519

# target.of.assay: UniProtKB P07900
In plain terms, low Kd, meaning strictly below 60 nM, gives T, and everything else gives F.

Does the reported Kd of CCOC(=O)c1cc(C(=O)N2Cc3ccccc3C2)c(O)cc1O stay below 60 nM? F

----------
# target.of.assay: Heat shock protein HSP 90-alpha (Homo sapiens)
Kindly state pKd for each of the entries shown.
Answers are plain numbers, as −log10 of the molar value.

Take a look at these entries with their results.
>>> endpoint_result("Cc1ccc(Cc2cc(C(=O)N3Cc4ccccc4C3)c(O)cc2O)cc1")
7.40
>>> endpoint_result("O=C(c1cc(Sc2ccccc2O)c(O)cc1O)N1Cc2ccccc2C1")
7.19
>>> endpoint_result("O=C(c1cc(Sc2ccc(Cl)cc2Cl)c(O)cc1O)N1Cc2ccccc2C1")
6.34

Can you share its pKd? I mean this compound: O=C(c1cc(Cc2ccc(Cl)cc2)c(O)cc1O)N1Cc2ccccc2C1 7.22
